Hello, the source for this data is paper PMC8869358, in case you need it.

Biological target: hERG (Homo sapiens)
Sequence (Q12809 whole entry): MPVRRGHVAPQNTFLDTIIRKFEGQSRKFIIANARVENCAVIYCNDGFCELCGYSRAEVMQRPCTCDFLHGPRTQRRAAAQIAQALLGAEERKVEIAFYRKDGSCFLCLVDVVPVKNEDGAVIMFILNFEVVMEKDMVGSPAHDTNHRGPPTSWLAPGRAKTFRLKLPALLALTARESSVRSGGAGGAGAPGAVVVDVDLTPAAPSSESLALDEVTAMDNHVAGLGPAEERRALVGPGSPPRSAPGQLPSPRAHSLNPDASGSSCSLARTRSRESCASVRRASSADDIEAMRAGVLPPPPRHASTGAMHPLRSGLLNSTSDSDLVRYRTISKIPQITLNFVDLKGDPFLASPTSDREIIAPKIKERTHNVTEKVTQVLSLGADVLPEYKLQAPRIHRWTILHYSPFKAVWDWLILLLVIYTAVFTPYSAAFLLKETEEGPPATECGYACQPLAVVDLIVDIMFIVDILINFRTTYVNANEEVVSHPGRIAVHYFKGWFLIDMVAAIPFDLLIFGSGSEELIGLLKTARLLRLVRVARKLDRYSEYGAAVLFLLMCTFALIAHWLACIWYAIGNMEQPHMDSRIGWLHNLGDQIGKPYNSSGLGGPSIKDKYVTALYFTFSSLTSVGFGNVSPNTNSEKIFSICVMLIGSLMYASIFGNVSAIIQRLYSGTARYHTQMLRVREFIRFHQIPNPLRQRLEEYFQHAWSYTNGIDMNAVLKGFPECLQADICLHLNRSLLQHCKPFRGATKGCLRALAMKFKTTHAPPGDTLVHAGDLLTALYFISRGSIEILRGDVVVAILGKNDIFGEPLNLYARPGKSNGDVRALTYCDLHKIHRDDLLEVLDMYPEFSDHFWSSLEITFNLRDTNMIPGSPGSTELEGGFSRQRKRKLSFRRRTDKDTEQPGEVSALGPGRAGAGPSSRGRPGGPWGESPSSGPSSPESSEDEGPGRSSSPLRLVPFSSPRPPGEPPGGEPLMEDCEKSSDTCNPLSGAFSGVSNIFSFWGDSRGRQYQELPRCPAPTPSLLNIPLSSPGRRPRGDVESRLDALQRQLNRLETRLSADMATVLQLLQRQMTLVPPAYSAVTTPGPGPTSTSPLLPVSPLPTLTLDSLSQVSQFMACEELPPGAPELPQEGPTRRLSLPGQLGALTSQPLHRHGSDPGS
Experiment: cell-based
Details: (-LOG10(IC50), µM)
Where a name gives a salt, the structure may show the parent alone.
endpointName: IC50

CCOC(=O)Nc1ccc(NCc2ccc(F)cc2)nc1N [Flupirtine maleate]
19 µM
O[Si](c1ccccc1)(c1ccccc1)c1ccccc1 [Triphenylsilanol]
21.9 µM
CN(C)S(=O)(=O)N(SC(F)(Cl)Cl)c1ccccc1 [Dichlofluanid]
17.4 µM
O=C(Nc1ccccc1)N(Cc1ccc(Cl)cc1)C1CCCC1 [Pencycuron]
33.4 µM
C/C=C\C/C=C/CCCCCCCCOC(C)=O [(E,Z)-Tetradeca-9,12-dienyl acetate]
36.7 µM
O=S1OCC2C(CO1)C1(Cl)C(Cl)=C(Cl)C2(Cl)C1(Cl)Cl (stereo not drawn) [Endosulfan]
32.1 µM
C=CCOC(Cn1ccnc1)c1ccc(Cl)cc1Cl (stereo not drawn) [Imazalil]
29.8 µM
c1ccc(Nc2ccc(Nc3ccccc3)cc2)cc1 [N,N'-Diphenyl-p-phenylenediamine]
41 µM
CCN1CCCC(OC(=O)C(c2ccccc2)c2ccccc2)C1 (stereo not drawn) [Crapinon]
5.35 µM
